Assay: Food and acidic beverage effect on bioavailability of ATR-101 tablets, 3-way crossover plasma PK study
Type: in vivo, human
Settings: both sexes, human, plasma, po, 500 mg, Treatment C (fasting with acidic beverage), single oral 500 mg; Median; read-out: AUC0-t
Where a name gives a salt, the structure may show the parent alone.
measured_endpoint: AUC0-t (ng·h/mL)
Give bare numbers, in ng·h/mL.

[ask] Can you look up the measured AUC0-t of CC(C)c1cccc(C(C)C)c1NC(=O)NCC1(c2ccc(N(C)C)cc2)CCCC1 [ATR-101, hydrochloride] for me?
[reply] 3800

* * *

Test: Food and acidic beverage effect on bioavailability of ATR-101 tablets, 3-way crossover plasma PK study
Type: in vivo, human
Settings: Treatment C (fasting with acidic beverage), single oral 500 mg; Maximum
Experimental: To evaluate the effects of food and of an acidic beverage on bioavailability of ATR-101 tablets prepared according to Example 2 (see Table 2), an open-label, randomized, 3-period, 3-way crossover, 3-sequence study was carried out with fourteen healthy, adult, non-tobacco using male and female (non-childbearing potential only) human subjects. Three different treatments A, B, and C were administered as follows: […]
Counter-ions that a name gives are not always drawn.
measured_endpoint: AUC0-inf

[ask] Looking for the measured AUC0-inf of CC(C)c1cccc(C(C)C)c1NC(=O)NCC1(c2ccc(N(C)C)cc2)CCCC1 [ATR-101, hydrochloride] , can you help?
[reply] 6970 ng·h/mL

* * *

Test: Food and acidic beverage effect on bioavailability of ATR-101 tablets, 3-way crossover plasma PK study
Format: in vivo, human
Details: both sexes, human, plasma, po, 500 mg, Treatment C (fasting with acidic beverage), single oral 500 mg; Median; read-out: Cmax
Where a name gives a salt, the structure may show the parent alone.
measured_endpoint: Cmax
Answer with the number, then the unit.

[ask] Param item = CC(C)c1cccc(C(C)C)c1NC(=O)NCC1(c2ccc(N(C)C)cc2)CCCC1 [ATR-101, hydrochloride] ; retrieve measured Cmax.
[reply] 666 ng/mL

* * *

Test: Food and acidic beverage effect on bioavailability of ATR-101 tablets, 3-way crossover plasma PK study
Assay type: in vivo, human
Settings: Treatment C (fasting with acidic beverage), single oral 500 mg; Maximum
Where a name gives a salt, the structure may show the parent alone.
measured_endpoint: AUC0-t (ng·h/mL)
One number for each entry, in ng·h/mL.

[ask] Dear colleague, I am looking for the recorded AUC0-t of the following compound: CC(C)c1cccc(C(C)C)c1NC(=O)NCC1(c2ccc(N(C)C)cc2)CCCC1 [ATR-101, hydrochloride]
[reply] 6430

* * *

Assay: Food and acidic beverage effect on bioavailability of ATR-101 tablets, 3-way crossover plasma PK study
Type: in vivo, human
Details: both sexes, human, plasma, po, 500 mg, Treatment C (fasting with acidic beverage), single oral 500 mg; Median
Counter-ions that a name gives are not always drawn.
measured_endpoint: half-life (h)
Numbers only, in h.

[ask] What value of half-life has been recorded for this entry: CC(C)c1cccc(C(C)C)c1NC(=O)NCC1(c2ccc(N(C)C)cc2)CCCC1 [ATR-101, hydrochloride]
[reply] 18.4

* * *

Experiment: Food and acidic beverage effect on bioavailability of ATR-101 tablets, 3-way crossover plasma PK study
Format: in vivo, human
Settings: both sexes, human, plasma, po, 500 mg, Treatment A (fasting with water), single oral 500 mg; Mean; read-out: AUC0-inf
Where a name gives a salt, the structure may show the parent alone.
measured_endpoint: AUC0-inf (ng·h/mL)
Answers are plain numbers, in ng·h/mL.

[ask] Given CC(C)c1cccc(C(C)C)c1NC(=O)NCC1(c2ccc(N(C)C)cc2)CCCC1 [ATR-101, hydrochloride] , state its recorded AUC0-inf.
[reply] 3620

* * *

Assay: Food and acidic beverage effect on bioavailability of ATR-101 tablets, 3-way crossover plasma PK study
Format: in vivo, human
Settings: Treatment A (fasting with water), single oral 500 mg; Maximum
Counter-ions that a name gives are not always drawn.
measured_endpoint: AUC0-inf (ng·h/mL)
Answers are plain numbers, in ng·h/mL.

[ask] Requested field: AUC0-inf. Item: CC(C)c1cccc(C(C)C)c1NC(=O)NCC1(c2ccc(N(C)C)cc2)CCCC1 [ATR-101, hydrochloride]
[reply] 5050

* * *

Test: Food and acidic beverage effect on bioavailability of ATR-101 tablets, 3-way crossover plasma PK study
Format: in vivo, human
Conditions: Treatment A (fasting with water), single oral 500 mg; Minimum
Counter-ions that a name gives are not always drawn.
measured_endpoint: AUC0-inf

[ask] Can you look up the measured AUC0-inf of CC(C)c1cccc(C(C)C)c1NC(=O)NCC1(c2ccc(N(C)C)cc2)CCCC1 [ATR-101, hydrochloride] for me?
[reply] 2430 ng·h/mL

* * *

Experiment: Food and acidic beverage effect on bioavailability of ATR-101 tablets, 3-way crossover plasma PK study
Type: in vivo, human
Conditions: both sexes, human, plasma, po, 500 mg, Treatment C (fasting with acidic beverage), single oral 500 mg; Median; read-out: AUC0-inf
Where a name gives a salt, the structure may show the parent alone.
measured_endpoint: AUC0-inf (ng·h/mL)
Give bare numbers, in ng·h/mL.

[ask] I have this compound here, CC(C)c1cccc(C(C)C)c1NC(=O)NCC1(c2ccc(N(C)C)cc2)CCCC1 [ATR-101, hydrochloride] , and I need its recorded AUC0-inf.
[reply] 4260

* * *

Experiment: Food and acidic beverage effect on bioavailability of ATR-101 tablets, 3-way crossover plasma PK study
Type: in vivo, human
Conditions: both sexes, human, plasma, po, 500 mg, Treatment A (fasting with water), single oral 500 mg; Median; read-out: AUC0-t
Counter-ions that a name gives are not always drawn.
measured_endpoint: AUC0-t

[ask] Query: AUC0-t; subject: CC(C)c1cccc(C(C)C)c1NC(=O)NCC1(c2ccc(N(C)C)cc2)CCCC1 [ATR-101, hydrochloride]
[reply] 2620 ng·h/mL

* * *

Test: Food and acidic beverage effect on bioavailability of ATR-101 tablets, 3-way crossover plasma PK study
Format: in vivo, human
Conditions: both sexes, human, plasma, po, 500 mg, Treatment A (fasting with water), single oral 500 mg; Median; read-out: AUC0-inf
Structures can show the parent of a compound that is named as a salt.
measured_endpoint: AUC0-inf (ng·h/mL)
Numbers only, in ng·h/mL.

[ask] What value of measured AUC0-inf is listed for CC(C)c1cccc(C(C)C)c1NC(=O)NCC1(c2ccc(N(C)C)cc2)CCCC1 [ATR-101, hydrochloride] ?
[reply] 3400

* * *

Assay: Food and acidic beverage effect on bioavailability of ATR-101 tablets, 3-way crossover plasma PK study
Type: in vivo, human
Settings: both sexes, human, plasma, po, 500 mg, Treatment A (fasting with water), single oral 500 mg; Median; read-out: Cmax
Counter-ions that a name gives are not always drawn.
measured_endpoint: Cmax (ng/mL)
Answers are plain numbers, in ng/mL.

[ask] May I ask what Cmax has been recorded for CC(C)c1cccc(C(C)C)c1NC(=O)NCC1(c2ccc(N(C)C)cc2)CCCC1 [ATR-101, hydrochloride] ?
[reply] 542

* * *

Assay: Food and acidic beverage effect on bioavailability of ATR-101 tablets, 3-way crossover plasma PK study
Type: in vivo, human
Conditions: both sexes, human, plasma, po, 500 mg, Treatment C (fasting with acidic beverage), single oral 500 mg; Mean
Where a name gives a salt, the structure may show the parent alone.
measured_endpoint: half-life (h)
Numbers only, in h.

[ask] Given CC(C)c1cccc(C(C)C)c1NC(=O)NCC1(c2ccc(N(C)C)cc2)CCCC1 [ATR-101, hydrochloride] , state its recorded half-life.
[reply] 19.5

* * *

Assay: Food and acidic beverage effect on bioavailability of ATR-101 tablets, 3-way crossover plasma PK study
Format: in vivo, human
Conditions: Treatment A (fasting with water), single oral 500 mg; Maximum
Protocol: To evaluate the effects of food and of an acidic beverage on bioavailability of ATR-101 tablets prepared according to Example 2 (see Table 2), an open-label, randomized, 3-period, 3-way crossover, 3-sequence study was carried out with fourteen healthy, adult, non-tobacco using male and female (non-childbearing potential only) human subjects. Three different treatments A, B, and C were administered as follows: […]
Where a name gives a salt, the structure may show the parent alone.
measured_endpoint: AUC0-t (ng·h/mL)
Numbers only, in ng·h/mL.

[ask] For CC(C)c1cccc(C(C)C)c1NC(=O)NCC1(c2ccc(N(C)C)cc2)CCCC1 [ATR-101, hydrochloride] , what is its reported AUC0-t?
[reply] 4860

* * *

Assay: Food and acidic beverage effect on bioavailability of ATR-101 tablets, 3-way crossover plasma PK study
Format: in vivo, human
Conditions: both sexes, human, plasma, po, 500 mg, Treatment C (fasting with acidic beverage), single oral 500 mg; Median; read-out: tmax
Counter-ions that a name gives are not always drawn.
measured_endpoint: tmax (h)
One number for each entry, in h.

[ask] Suppose we examine the compound CC(C)c1cccc(C(C)C)c1NC(=O)NCC1(c2ccc(N(C)C)cc2)CCCC1 [ATR-101, hydrochloride] ; what tmax value has been reported?
[reply] 2

* * *

Assay: Food and acidic beverage effect on bioavailability of ATR-101 tablets, 3-way crossover plasma PK study
Type: in vivo, human
Settings: Treatment B (fed with water), single oral 500 mg; Maximum
Experimental: To evaluate the effects of food and of an acidic beverage on bioavailability of ATR-101 tablets prepared according to Example 2 (see Table 2), an open-label, randomized, 3-period, 3-way crossover, 3-sequence study was carried out with fourteen healthy, adult, non-tobacco using male and female (non-childbearing potential only) human subjects. Three different treatments A, B, and C were administered as follows: […]
Where a name gives a salt, the structure may show the parent alone.
measured_endpoint: AUC0-inf (ng·h/mL)
Numbers only, in ng·h/mL.

[ask] Could you share which AUC0-inf value was measured for CC(C)c1cccc(C(C)C)c1NC(=O)NCC1(c2ccc(N(C)C)cc2)CCCC1 [ATR-101, hydrochloride] ?
[reply] 14000
